# Test system: BT-549 breast
# ASSAY EXPLANATION: NCI tumour cell line growth inhibition, 48 h
RECORDED METRIC: TGI (µM)
Respond with the bare value in µM.

TGI reading for `C(=C1c2ccccc2-c2ccccc21)c1ccncc1` : 22.4

TGI reading for `Cc1cc(Cc2cc(Cc3cc(C)cc(C(C)(C)C)c3O)c(C)cc2C)c(O)c(C(C)(C)C)c1` : 40.6

TGI reading for `C/C(=N/OC(=O)c1cccc2c(=O)c3ccccc3[nH]c12)[C@H]1CC[C@H]2[C@@H]3CCC4=C/C(=N/OC(=O)c5cccc6c(=O)c7ccccc7[nH]c56)CC[C@]4(C)[C@H]3CC[C@]12C` : 34.8
